Value source: paper PMC12136788

biological target: MSI1 full-length (mouse, UniProt Q61474 1-362); test: nsRBNS (natural sequence RNA bind-n-seq); RBNS binding buffer (assumed for nsRBNS): 25 mM Tris pH 7.5, 150 mM KCl, 3 mM MgCl2, 0.01% Triton X-100, 500 ug/ml BSA, 20 U/ml SUPERase-In, 4 C; UNK is unkempt and MSI1 is Musashi-1; names of the RNAs are library labels; protein concentration not given here; high values mean tight binding
Sequence (Q61474 whole entry): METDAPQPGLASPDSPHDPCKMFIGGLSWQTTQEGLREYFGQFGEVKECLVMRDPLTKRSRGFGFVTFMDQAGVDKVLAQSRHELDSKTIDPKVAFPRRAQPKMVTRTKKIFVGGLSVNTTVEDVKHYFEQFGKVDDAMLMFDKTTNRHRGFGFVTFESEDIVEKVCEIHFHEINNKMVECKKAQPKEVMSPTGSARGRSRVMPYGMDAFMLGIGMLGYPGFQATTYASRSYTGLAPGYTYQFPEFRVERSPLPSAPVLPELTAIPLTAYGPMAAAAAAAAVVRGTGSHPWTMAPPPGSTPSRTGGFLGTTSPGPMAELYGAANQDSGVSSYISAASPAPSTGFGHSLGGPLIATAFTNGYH
In all, about 5,800 sequences were measured (“enrichment r”: median about 0.54, highest 2% from about 16 on). This is one part of a sample in which the highest values are shown more often than they occur.
Measured binding signal values are reported for all entries that follow.
State just the number; it will be interpreted in enrichment R.

Recorded binding signal, per entry:
{"Binder": "chr16:21983864:21984660:-|three_prime_utr|ENSG00000155714|control|control|control (ssRNA) RNA: GGGAGUUCUACAGUCCGACGAUCAAAGAAAAUUGAGCUGGCAAAAGAUGAAUCUUUCACAAGCAGUGAUGAUAAUGAAAAUGUAGAUUUAGAUAAAAGACUUCAAUAUUAUAGAUAUCCGUGGUCAACUGUGCAUCACCCUGCCAACAGAGGAUUGAGCAUCA", "binding signal / enrichment R": 43.6}
{"Binder": "chr15:49134392:49134529:-|CDS|ENSG00000166200|unk|FALSE|unique (ssRNA) RNA: GGGAGUUCUACAGUCCGACGAUCAUAUUUGCUUUCCUAGACUGAUGAUGGAGAAGAUGAUCUGAAAAAAGGUACACAGUUAUUAGAAAUAUAUGCUUUGGAAAUUCAAAUGUACACAGCACAGAAAAAUAACAAAAAACUUAACAACAGAGGAUUGAGCAUCA", "binding signal / enrichment R": 0.819}
{"Binder": "chr8:17644361:17644462:-|3pUTR|ENSG00000129422|msi1|FALSE|bound_elsewhere (ssRNA) RNA: GGGAGUUCUACAGUCCGACGAUCCAACAUUGUGAUGUCAGUAUUUACUAAUCUACAUUCAGUGGCUGUACAAAUAACAGCUGUAGUAAGAAGAGAUUCAGGAUGCUAGAGGUGAAUAUUUGGGUCAUUUACAUGUACACUACACAACAGAGGAUUGAGCAUCA", "binding signal / enrichment R": 0.442}

Identify measured binding signal associated with chr1:17407970:17408071:-|3pUTR|ENSG00000179051|msi1|total|mutant (ssRNA) RNA: GGGAGUUCUACAGUCCGACGAUCGGGUACCGUUCUGCUGACCCAGCUCCCUUCCGUCACGUUUGCUUGGCUCUGGUACCAAACCGUUGGGAUUACCGAAGAGUCCCCUUCCUUGCGUGUCAGCACGGAUGCUGUGACUGCCACCAACAGAGGAUUGAGCAUCA 0.479

Read the entry chr8:88032264:88032379:-|3pUTR|ENSG00000156103|unk|FALSE|bound_elsewhere (ssRNA) RNA: GGGAGUUCUACAGUCCGACGAUCACUCCUUAUAAUGUUGCGUCAUUAAAGGUCAAGGGGUCAUGCUAUUAAUCUCAUUGCUAUAGACCAUUAACAUGACUGAACUUUUCCACAAAGUACUUAUGUUUACAAUGCUAUAACCCUCAACAGAGGAUUGAGCAUCA and write its reported binding signal. 0.72

Retrieve binding signal measured for chr5:72209348:72209524:+|3pUTR|ENSG00000131711|msi1_unk|FALSE|overlapping (ssRNA) RNA: GGGAGUUCUACAGUCCGACGAUCUUAUGUCUUAUAAUCCUGCAUCACUUCUAUCCUAUCCAGUCAUAUCUAAUGUAGAAAAUUAGUUUCCAGUGAAAGUAAUAUGUAGUGCUUUUAUGAUAUUUGUGUGCAAUAUCCCCUCUUCAACAGAGGAUUGAGCAUCA and print it. 22.2
